ASSAY COMMENT: self-splicing fitness, log relative to wild type (ln ratio); higher = more splicing; Tetrahymena group I intron in knt gene, E. coli kanamycin selection, DiMSum; sequences stand for … in CUCUCU…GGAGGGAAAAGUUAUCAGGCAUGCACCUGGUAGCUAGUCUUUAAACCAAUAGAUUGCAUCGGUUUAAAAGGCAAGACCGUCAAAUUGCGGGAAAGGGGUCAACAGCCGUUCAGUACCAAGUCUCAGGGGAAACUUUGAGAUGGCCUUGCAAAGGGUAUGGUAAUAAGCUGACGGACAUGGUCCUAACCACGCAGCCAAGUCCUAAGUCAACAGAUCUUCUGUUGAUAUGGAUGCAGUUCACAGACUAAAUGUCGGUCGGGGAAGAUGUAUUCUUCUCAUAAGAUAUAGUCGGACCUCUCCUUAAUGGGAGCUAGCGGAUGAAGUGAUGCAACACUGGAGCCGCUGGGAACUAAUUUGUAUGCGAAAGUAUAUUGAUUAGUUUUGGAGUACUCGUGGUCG;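 also: selection with 25 µg/mL kanamycin versus none on LB agar overnight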
TEST CONTEXT: 30 °C
Reported values of self-splicing fitness (ln) for individual entries

| RECORD SEQUENCE | self-splicing fitness (ln) |
| --- | --- |
| GAGUAGCAAUAUUACGUUAU | -2.9 |
| AUGAAGCAAUAUUACGUAAC | -2.45 |
| CAUCAGCAAUAUUACGACCG | -0.142 |
| GCAGAGCAAUAUUACGUCAA | -2.73 |
| CUCAAGCAAUAUUACGUAAU | -3.29 |
| UCAGAGCAAUAUUACGUAUU | -3.31 |
| AGCGAGCAAUAUUACGCUUG | -3.61 |
| CGUAAGCAAUAUUACGCCUU | -2.51 |
